Data origin: patent US9458133B2

- measured-target: human Kv 1.5 (Homo sapiens, UniProt P22460)
- Construct: expressed in transfected cells; host or cells: mouse L-929 fibroblasts stably expressing human Kv1.5
- Sequence (P22460 whole entry): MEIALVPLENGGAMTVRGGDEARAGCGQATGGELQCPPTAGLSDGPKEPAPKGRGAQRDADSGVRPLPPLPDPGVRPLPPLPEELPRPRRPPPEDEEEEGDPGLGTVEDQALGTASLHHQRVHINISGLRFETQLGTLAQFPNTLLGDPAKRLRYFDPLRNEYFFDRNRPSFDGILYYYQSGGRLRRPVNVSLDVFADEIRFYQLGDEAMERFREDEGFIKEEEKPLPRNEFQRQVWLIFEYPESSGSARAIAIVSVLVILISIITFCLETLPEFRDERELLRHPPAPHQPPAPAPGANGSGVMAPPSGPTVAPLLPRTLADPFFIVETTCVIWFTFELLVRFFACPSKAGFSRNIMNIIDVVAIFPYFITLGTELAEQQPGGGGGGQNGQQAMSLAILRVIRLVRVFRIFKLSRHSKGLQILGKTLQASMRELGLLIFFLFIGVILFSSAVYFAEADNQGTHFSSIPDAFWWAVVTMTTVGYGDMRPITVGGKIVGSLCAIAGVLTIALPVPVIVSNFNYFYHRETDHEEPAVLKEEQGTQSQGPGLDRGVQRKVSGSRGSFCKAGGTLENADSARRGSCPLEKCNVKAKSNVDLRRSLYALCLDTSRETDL
- test-details: Block of IKur current in patch clamped L-929 cells stably expressing human Kv1.5
- Assay type: cell-based
- condition-info: L929, 0.3 μM; patch clamped mammalian L-929 cells expressing human Kv1.5 (IKur); read-out: KV1_5% Inh L929 @0.3 μM
- Description: Synders, D. J. et al., “A rapidly activating and slowly inactivating potassium channel cloned from human heart: functional analysis after stable mammalian cell culture expression”, J. Gen. Physiol., 101:513-543 (1993). […]
# maps each entry to its inhibition at 0.3 µM
measurement-type: inhibition at 0.3 µM

NS(=O)(=O)c1cncc(-c2cc3cccc(-c4ccccc4)c3c(NCc3cccc(Cl)c3Cl)n2)c1: 16.3%
O=C(Nc1cccc(-c2cc3cccc(-c4ccccc4)c3c(NCc3ccccn3)n2)c1)N1CCOCC1: 92.2%
COc1cccc(CNc2nc(-c3cncc(S(N)(=O)=O)c3)cc3cccc(-c4ccccc4)c23)c1: 82.4%
CC(Nc1nc(Cl)c(-c2cncc(S(N)(=O)=O)c2)c2cccc(-c3ccccc3)c12)c1ccccn1 (stereo not shown): 98.8%
NC(=O)Nc1cccc(-c2cc3cccc(-c4ccccc4)c3c(NCc3ccccn3)n2)c1: 90.8%
COc1ccc(-c2cc3cccc(-c4ccccc4)c3c(NCc3ccccn3)n2)cn1: 96.9%
NS(=O)(=O)c1ccc(-c2cnc(NCc3ccccn3)c3c(-c4ccccc4)cccc23)cc1: 97.2%
NC(=O)CS(=O)(=O)c1cccc(-c2cc3cccc(-c4ccccc4)c3c(NCc3ccccn3)n2)c1: 34.8%
N#Cc1ccc(-c2cc3cccc(-c4ccccc4)c3c(NCc3ccccn3)n2)cc1: 92.3%
Cc1cnc(CNc2nc(-c3cncc(S(N)(=O)=O)c3)cc3cccc(-c4ccccc4)c23)cn1: 79.5%
NS(=O)(=O)c1cncc(-c2c(Cl)nc(NCc3ccccc3)c3c(-c4ccccc4)cccc23)c1: 97.3%
NC(=O)Nc1cncc(-c2cc3cccc(-c4ccccc4)c3c(NCc3ccccn3)n2)c1: 88.7%
CC(=O)Nc1cncc(-c2cc3cccc(-c4ccccc4)c3c(NCc3ccccn3)n2)c1: 71.9%
